test: self-splicing fitness, log relative to wild type (ln ratio); higher = more splicing; Tetrahymena group I intron in knt gene, E. coli kanamycin selection, DiMSum; sequences stand for … in CUCUCU…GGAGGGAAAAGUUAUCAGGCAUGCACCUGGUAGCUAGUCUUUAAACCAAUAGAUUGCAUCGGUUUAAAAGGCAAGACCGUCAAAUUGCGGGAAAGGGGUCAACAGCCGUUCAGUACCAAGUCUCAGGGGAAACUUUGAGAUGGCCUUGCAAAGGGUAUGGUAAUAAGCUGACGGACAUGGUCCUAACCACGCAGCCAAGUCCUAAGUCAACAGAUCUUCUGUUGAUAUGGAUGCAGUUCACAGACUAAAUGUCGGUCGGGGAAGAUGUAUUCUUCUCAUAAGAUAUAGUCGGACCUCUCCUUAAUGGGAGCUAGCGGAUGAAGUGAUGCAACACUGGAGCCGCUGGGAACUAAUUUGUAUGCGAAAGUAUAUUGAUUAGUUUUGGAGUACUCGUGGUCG; details: 37 °C;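 further: selection with 25 µg/mL kanamycin versus none on LB agar overnight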
# self-splicing fitness (ln) binned as low group = under -2, middle group = from -2 up to -0.7, high group = -0.7 and over

sequence-input | discrete-label
GGCCAGCAAUAUUACGCUAG | low group
GCAUAGCAAUAUUACGACGU | high group
CACGAGCAAUAUUACGAACC | middle group
UAUCAGCAAUAUUACGCGCC | high group
CAUCAGCAAUAUUACGGGCU | low group
CGACAGCAAUAUUACGAAAA | middle group
CUUAAGCAAUAUUACGAUGU | middle group
CAUUAGCAAUAUUACGAAGA | high group
AUCGAGCAAUAUUACGUAUC | low group
AUCCAGCAAUAUUACGCGCG | middle group
CACGAGCAAUAUUACGUUCA | low group
AACAAGCAAUAUUACGGAGG | middle group
CGGUAGCAAUAUUACGUUGU | low group
UGUAAGCAAUAUUACGGUGU | high group
CCAAAGCAAUAUUACGUCCU | low group
UGACAGCAAUAUUACGCAUG | high group
